target: Nuclear factor erythroid 2-related factor 2 (Homo sapiens, UniProt Q16236); test: Activation of Nrf2 (unknown origin) expressed in human U2OS cells co-expressing Keap1 assessed as increase in Nrf2 nuclear translocation incubated for 6 hrs under dark condition by pathhunter assay
Sequence (Q16236 whole entry): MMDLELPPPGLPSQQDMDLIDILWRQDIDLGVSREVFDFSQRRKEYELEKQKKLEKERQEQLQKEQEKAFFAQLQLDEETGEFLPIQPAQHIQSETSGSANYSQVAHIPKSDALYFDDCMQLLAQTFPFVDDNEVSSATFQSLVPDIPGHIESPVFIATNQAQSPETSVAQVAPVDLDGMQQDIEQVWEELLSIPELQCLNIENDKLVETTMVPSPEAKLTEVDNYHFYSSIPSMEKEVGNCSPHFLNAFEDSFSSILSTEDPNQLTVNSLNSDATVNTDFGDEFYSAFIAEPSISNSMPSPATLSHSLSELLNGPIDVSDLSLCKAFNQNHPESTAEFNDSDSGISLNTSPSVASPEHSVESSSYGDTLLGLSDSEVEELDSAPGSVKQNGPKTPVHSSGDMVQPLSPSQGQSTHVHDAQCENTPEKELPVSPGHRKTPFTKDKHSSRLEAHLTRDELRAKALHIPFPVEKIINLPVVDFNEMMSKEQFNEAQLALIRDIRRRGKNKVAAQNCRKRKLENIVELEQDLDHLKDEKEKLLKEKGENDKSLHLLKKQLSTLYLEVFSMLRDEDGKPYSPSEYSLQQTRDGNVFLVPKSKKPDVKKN
measurement-label: EC50 (nM)

// worked examples, EC50 included
>  <compound>
O=S(=O)(/C=C/c1cccnc1)c1ccccc1F

>  <recorded-number>
6850

$$$$
>  <compound>
O=S(=O)(/C=C/c1cccc(Cl)n1)c1cccc(Cl)c1

>  <recorded-number>
1070

$$$$
>  <compound>
O=S(=O)(/C=C\c1cccnc1Cl)c1ccccc1F

>  <recorded-number>
3390

$$$$
>  <compound>
O=S(=O)(/C=C/c1ccc(Cl)cn1)c1ccc(F)cc1

>  <recorded-number>
4370

$$$$
>  <compound>
O=S(=O)(/C=C/c1ccc(Cl)nc1)c1ccccc1Cl

>  <recorded-number>
1630

$$$$

I. O=S(=O)(/C=C\c1ncccc1Cl)c1ccccc1F
II. O=S(=O)(/C=C/c1ccc(Cl)nc1)c1ccccc1F
III. O=S(=O)(/C=C\c1cccnc1)c1cccc(F)c1
Problem: Arrange these 3 compounds in increasing order of EC50. Arrange the labels as the request states and list them.
Solution: I, II, III

P. O=S(=O)(/C=C/c1cccnc1Cl)c1ccccc1F
Q. O=S(=O)(/C=C/c1ccc(Cl)cn1)c1ccccc1Cl
R. O=S(=O)(/C=C/c1ncccc1Cl)c1ccccc1Cl
Problem: Arrange these 3 compounds in increasing order of EC50. Arrange the labels as the request states and list them.
Solution: R, P, Q
(R: 26 nM, P: 217 nM, Q: 2940 nM)
